# System tested: Gal(b1-4)GlcNAc(b1-3)Gal(b1-4)GlcNAc(b1-2)Man(a1-3)[Gal(b1-4)GlcNAc(b1-3)Gal(b1-4)GlcNAc(b1-2)Man(a1-6)]Man(b1-4)GlcNAc(b1-4)GlcNAc
# Test description: glycan array binding signal (z-score within array); higher = stronger binding
# Stated conditions: glycan notation: IUPAC condensed, linker removed
Many of the other results were omitted from the sample, so the strongest signals are more common in it than they were.

- Binder: "CFEM-CGl (Candida glabrata), Q6FRS0 (protein) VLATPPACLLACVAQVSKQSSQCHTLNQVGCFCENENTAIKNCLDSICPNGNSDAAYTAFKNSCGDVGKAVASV"
  glycan array binding signal (z-score): 4.99
- Binder: "CBM13 2a (Mycobacterium tuberculosum), P64849 (protein) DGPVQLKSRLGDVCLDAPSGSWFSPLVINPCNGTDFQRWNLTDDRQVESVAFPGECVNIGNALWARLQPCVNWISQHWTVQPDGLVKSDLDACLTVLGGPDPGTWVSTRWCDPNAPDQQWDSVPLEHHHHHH"
  glycan array binding signal (z-score): 3.82
- Binder: "Pbx2CASH domain (Cryptococcus neoformans) (protein) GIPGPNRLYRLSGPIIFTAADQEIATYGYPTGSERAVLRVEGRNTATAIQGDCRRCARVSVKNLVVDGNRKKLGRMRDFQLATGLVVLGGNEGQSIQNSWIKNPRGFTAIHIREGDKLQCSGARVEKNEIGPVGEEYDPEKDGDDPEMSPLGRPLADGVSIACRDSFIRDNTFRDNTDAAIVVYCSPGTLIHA"
  glycan array binding signal (z-score): 3.98
- Binder: "LngA (Escherichia coli) (protein) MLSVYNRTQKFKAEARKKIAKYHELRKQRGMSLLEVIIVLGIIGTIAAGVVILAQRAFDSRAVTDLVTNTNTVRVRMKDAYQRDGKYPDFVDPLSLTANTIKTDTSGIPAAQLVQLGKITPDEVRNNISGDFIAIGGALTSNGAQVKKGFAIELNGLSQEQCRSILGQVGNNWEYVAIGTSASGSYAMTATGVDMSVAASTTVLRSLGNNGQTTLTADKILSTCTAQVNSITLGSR"
  glycan array binding signal (z-score): 3.2
- Binder: "Pwp6 (Candida glabrata) (protein) MGSSHHHHHHSSGLVPRGSHMASANLPKLTNICQIPDNVKKTSGFKGEIRRIGLFPPGGDYTYLLKFPSTGSTASDTISLTTKPQLSTSGWFPSLFGHTYFIKADLLVYMVAYFVPTETGEYTFKLVNSDDAAVMYVGNPSAFPCGSIDTWPEPRKEDINVCDKISASTKLYMEKGLAYPVRLVWYNGGGDGQFNAQFIDPSGTTHTDWNGYVWQYDACTDCDYK"
  glycan array binding signal (z-score): 2.96
